Numbers sourced from ChEMBL document CHEMBL5303573.

protocol: The drug is tested on the gut metagenome community of MV22 with ENA study accession number: PRJEB31790 and ENA sample accession number: SAMEA5537503 for biotransformation. The drug concentrations were measured over 9 timepoints collected between 0 and 24 hours of incubation by liquid-chromatography-coupled mass spectrometry (LC–MS)
Assay type: ADME
Set-up: dose 2 uM, timepoint 0, 1, 2, 4, 6, 8, 12, 18, 24 hours
assayContext: 2 µM
assayEndpoint: Bacterial Biotransformation

> print(dat)
                                   compound                    result
1  C#C[C@]1(OC(C)=O)CC[C@H]2[C@@H]3CCC4=CC(=O)CC[C@@H]4[C@H]3CC[C@@]21C [NORETHINDRONE ACETATE]      Compound metabolized
2  C[C@@H]1C[C@H]2[C@@H]3CCC4=CC(=O)C=C[C@]4(C)[C@@]3(F)[C@@H](O)C[C@]2(C)[C@@]1(O)C(=O)CO  Compound NOT metabolized
3  COc1ccc([C@@H]2Sc3ccccc3N(CCN(C)C)C(=O)[C@@H]2OC(C)=O)cc1  Compound NOT metabolized
4     CC(=O)OCC(CCn1cnc2cnc(N)nc21)COC(C)=O      Compound metabolized

----------
protocol: The drug is tested on Bacteroides ovatus strain: ATCC8483 for biotransformation. The drug concentrations were measured before and after a 12-h incubation by liquid-chromatography-coupled mass spectrometry (LC–MS)
assayContext: 2 µM
assayEndpoint: Bacterial Biotransformation

molecule	result
CC(C)c1nc(CN(C)C(=O)N[C@H](C(=O)N[C@@H](Cc2ccccc2)C[C@H](O)[C@H](Cc2ccccc2)NC(=O)OCc2cncs2)C(C)C)cs1 [RITONAVIR]	Compound NOT metabolized
COc1ccc2c(c1)c(CC(=O)O)c(C)n2C(=O)c1ccc(Cl)cc1 [INDOMETHACIN]	Compound metabolized
O=C(NC(Cc1cc(=O)[nH]c2ccccc12)C(=O)O)c1ccc(Cl)cc1 (configuration not stated) [REBAMIPIDE]	Compound NOT metabolized
COC(=O)C1=C(C)NC(C)=C(C(=O)OC(C)C)C1c1cccc2nonc12 (configuration not stated) [ISRADIPINE]	Compound NOT metabolized
CC(CCc1ccccc1)NCC(O)c1ccc(O)c(C(N)=O)c1 (configuration not stated) [LABETALOL]	Compound NOT metabolized
Cc1cc(C)cc(OCC2CNC(=O)O2)c1 (configuration not stated) [METAXALONE]	Compound metabolized
COc1ccc(CCN(C)CCCC(C#N)(c2ccc(OC)c(OC)c2)C(C)C)cc1OC (configuration not stated)	Compound metabolized
CC(=O)OCC(CCn1cnc2cnc(N)nc21)COC(C)=O [FAMCICLOVIR]	Compound metabolized
C#C[C@]1(OC(C)=O)CC[C@H]2[C@@H]3CCC4=C[C@@H](OC(C)=O)CC[C@@H]4[C@H]3CC[C@@]21C [ETHYNODIOL DIACETATE]	Compound NOT metabolized
O=C1N=C([O-])NC1(c1ccccc1)c1ccccc1.[Na+] [PHENYTOIN SODIUM]	Compound metabolized
COc1ccccc1OCC(O)CN1CCN(CC(=O)Nc2c(C)cccc2C)CC1 (configuration not stated) [RANOLAZINE]	Compound NOT metabolized
O=c1[nH]c2ccccc2n1CCCN1CCC(n2c(=O)[nH]c3cc(Cl)ccc32)CC1 [DOMPERIDONE]	Compound NOT metabolized
C=CCN1CC[C@]23c4c5ccc(O)c4O[C@H]2C(=O)CC[C@@]3(O)[C@H]1C5 [NALOXONE]	Compound metabolized
CCC(C)n1ncn(-c2ccc(N3CCN(c4ccc(OCC5COC(Cn6cncn6)(c6ccc(Cl)cc6Cl)O5)cc4)CC3)cc2)c1=O (configuration not stated) [ITRACONAZOLE]	Compound NOT metabolized
CN(C)C(=O)Oc1cccc([N+](C)(C)C)c1.[Br-] [NEOSTIGMINE BROMIDE]	Compound metabolized
CC12CC3CC(C)(C1)CC(N)(C3)C2 [MEMANTINE]	Compound NOT metabolized
CC[C@H](C)C(=O)O[C@H]1CCC=C2C=C[C@H](C)[C@H](CC[C@@H]3C[C@@H](O)CC(=O)O3)[C@H]21 [MEVASTATIN]	Compound metabolized
